molecules and their reported melting point

# Molecule, melting point
data = [
    ("C=CCOc1ccc(C2=NN(C(C)=O)C(c3ccccc3)C2)cc1 (stereo not drawn)", "95 to 98 °C"),
    ("CC(=O)N1N=C(c2ccc(OCC=C(C)C)cc2)CC1c1ccc(Cl)cc1Cl (stereo not drawn)", "128 to 130 °C"),
    ("CC(=O)N1N=C(c2ccc(OCC=C(C)C)cc2)CC1c1cccc(Cl)c1 (stereo not drawn)", "85 to 88 °C"),
    ("CC(=O)N1N=C(c2ccc(OCC=C(C)C)cc2)CC1c1cccc2ccccc12 (stereo not drawn)", "78 to 80 °C"),
    ("CC(=O)N1N=C(c2ccc(OCC=C(C)C)cc2)CC1c1ccccc1Cl (stereo not drawn)", "131 to 134 °C"),
    ("CC(=O)N1N=C(c2ccc(OCC=C(C)C)cc2)CC1c1cccc(C)c1 (stereo not drawn)", "120 to 122 °C"),
    ("CC(=O)N1N=C(c2ccc(OCC=C(C)C)cc2)CC1c1ccc(C)cc1C (stereo not drawn)", "117 to 119 °C"),
    ("CC(=O)N1N=C(c2ccc(OCC=C(C)C)cc2)CC1c1ccccc1C (stereo not drawn)", "110 to 112 °C"),
    ("CC(=O)N1N=C(c2ccc(OCC=C(C)C)cc2)CC1c1ccc(-c2ccccc2)cc1 (stereo not drawn)", "132 to 135 °C"),
]
